Test system: bloodstream form T. brucei Lister 427
Test: ATP–bioluminescence-based bloodstream form T. brucei cell viability assay
Conditions: Trypanosoma brucei, 48 h, read-out: Tb427 EC50
Listing: EC50 of selected compounds
MEASUREMENT_NAME: EC50

1. Cc1cc(Nc2ccc(C(F)(F)F)cc2)nc(N)n1 [Compound 88] = 15 µM
2. Cc1cc(Nc2ccccc2C)nc(N)n1 [Compound 77] = > 25 µM
3. Nc1cnccc1Nc1cc(Cl)cc(Cl)c1 [Compound 22] = 18 µM
4. Cc1cc(Nc2cc(Cl)cc(-c3ccc(C#N)cc3)c2)nc(N)n1 [Compound 96] = 1 µM
5. Cc1cc(Nc2cc(Cl)c(C)c(Cl)c2)nc(N)n1 [Compound 65] = 4.4 µM
6. Cc1cc(Nc2cc(C(C)(C)C)cc(C(C)(C)C)c2)nc(N)n1 [Compound 53] = 4.1 µM
7. Cc1cc(Nc2cc(Cl)cc(Cl)c2)cc(N)n1 [Compound 20] = 2.2 µM
8. Nc1nc(Nc2cc(Cl)cc(Cl)c2)cc(C(F)(F)F)n1 [Compound 14] = 10 µM
